Tested on: K-562 cells
Protocol summary: Cell growth inhibition assay (CellTiter-Glo), K-562;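 note: cellular ATP measured by luminescence after 4 days of exposure, 3-fold dilution series from 10 µM, DMSO vehicle-treated cells define 100%, cell-free medium wells −100%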
Test settings: Homo sapiens, K562, read-out: K-562 GI50
GI50 vs 200 nM: less than gives Y; not less than gives N.

Example entries and their recorded answers appear below.
1. Cc1cc(N2C(=O)c3nc(C4=CCOCC4)n(C(C)C)c3C2c2ccc(Cl)cc2)cn2c(C(F)F)nnc12 (stereo not shown); Y
2. Cc1cc(N2C(=O)c3nc(C4=CC(C)(C)NC(C)(C)C4)n(C(C)C)c3C2c2ccc(Cl)cc2)cn2c(C)nnc12 (stereo not shown); N
3. Cc1cc(N2C(=O)c3nc(C4=CCN(C(=O)OCC(C)C)CC4)n(C(C)C)c3C2c2ccc(Cl)cc2)cn2c(C)nnc12 (stereo not shown); Y
4. COc1ccc(-c2nc3c([nH]2)[C@@H](c2ccc(Cl)cc2)N(c2cc(C)c(=O)n(C)c2)C3=O)cn1; N
5. CCn1c(-c2cccnc2OC)nc2c1C(=O)N(c1cc(C)c(=O)n(C)c1)[C@@H]2c1ccc(Cl)cc1; Y

Hello, I'm reviewing records and need to know if GI50 of COC(=O)N1CC=C(c2nc3c(n2C(C)C)C(c2ccc(Cl)cc2)N(c2cc(C)c4nnc(C)n4c2)C3=O)CC1 (stereo not shown) is below 200 nM. Could you check? N

Hello, I'm reviewing records and need to know if GI50 of COc1ncc(-c2nc3c(n2C(C)C)C(c2ccc(Cl)cc2)N(c2cc(C)c4nnc(C(F)F)n4c2)C3=O)c(OC)n1 (stereo not shown) is below 200 nM. Could you check? Y

---

Values of pIC50 reported for BRD3 (His-Brd3(20-477)) (Homo sapiens (Human)) appear below.
Answers are plain numbers, as −log10 of the molar value.

Some molecules with known pIC50 results, for comparison:
1) Cc1cc(N2C(=O)c3c(nc(C)n3C3CC3)C2c2ccc(Cl)cc2)cn2c(C)nnc12 (centres unmarked) [Example 115]; 7.18
2) COc1cc(C(F)(F)F)ccc1-c1nc2c(n1C(C)C)C(c1ccc(Cl)cc1)N(c1cc(C)c3nnc(C(F)F)n3c1)C2=O (centres unmarked) [Example 144]; 7.66
3) COc1ncccc1-c1nc2c(n1C(C)C)C(c1ccc(Cl)cc1)N(c1cc(OC)c3nnn(C)c3c1)C2=O (racemic) [Example 74]; 7.21
4) Cc1cc(N2C(=O)c3nc(-c4ccc[nH]4)n(C(C)C)c3C2c2ccc(Cl)cc2)cn(C)c1=O (centres unmarked) [Example 30]; 7.00
5) COc1ccc(-c2nc3c(n2C)C(c2ccc(Cl)cc2)N(c2cc(C)c(=O)n(C)c2)C3=O)cn1 (centres unmarked) [Example 8]; 7.10

Your task in this section: give pIC50 for each listed record.
1. COc1ncccc1-c1nc2c([nH]1)C(c1ccc(Cl)cc1)N(c1cc(C)c3nnc(C)n3c1)C2=O (centres unmarked) [Example 123]
2. CCn1c(-c2ccc(OC)nc2)nc2c1C(=O)N(c1cc(C)c(=O)n(C)c1)[C@@H]2c1ccc(Cl)cc1 [Example 39]
3. Cc1cc(N2C(=O)c3[nH]c(C4CC4)nc3C2c2ccc(Cl)cc2)cn(C)c1=O (centres unmarked) [Example 46]
4. Cc1cc(N2C(=O)c3nc(C)n(C(C)C)c3C2c2ccc(Cl)cc2)nn2c(C(F)F)nnc12 (centres unmarked) [Example 150]
5. COc1cc(N2C(=O)c3nc(C4=CCOCC4)n(C(C)C)c3[C@H]2c2ccc(Cl)cc2)cc2c1nnn2C [Example 61]
6. COc1ncccc1-c1nc2c([nH]1)[C@@H](c1ccc(Cl)cc1)N(c1cc(C)c(=O)n(C)c1)C2=O [Example 156]
7. Cc1cc(N2C(=O)c3nc(-c4cccnc4F)n(C)c3C2c2ccc(Cl)cc2)cn(C)c1=O (centres unmarked) [Example 32]

1: 7.06; 2: 7.49; 3: 7.11; 4: 7.41; 5: 7.29; 6: 7.53; 7: 6.89

Your task in this section: give pIC50 for each listed record.
1. COc1ncccc1-c1nc2c(n1C(C)C)C(c1ccc(Cl)cc1)N(c1cc(C)c3nnc(C(F)F)n3c1)C2=O (centres unmarked) [Example 132]
2. CCn1c(C)nc2c1[C@@H](c1ccc(Cl)cc1)N(c1cc(C)c3nnn(C)c3c1)C2=O [Example 120]
3. COc1ncccc1-c1nc2c(n1C(C)C)[C@@H](c1ccc(Cl)cc1)N(c1cc(OC)c3nnn(C)c3c1)C2=O [Example 111]
4. COc1cc(N2C(=O)c3nc(C4=CCN(C)CC4)n(C(C)C)c3C2c2ccc(Cl)cc2)cc2c1nnn2C (centres unmarked) [Example 73]
5. COc1ccc(-c2nc3c(n2C)C(c2ccc(Cl)cc2)N(c2cc(C)c4nnc(C)n4c2)C3=O)cn1 (centres unmarked) [Example 16]
6. Cc1cc(N2C(=O)c3nc(-c4nccs4)n(C4CC4)c3C2c2ccc(Cl)cc2)cn(C)c1=O (centres unmarked) [Example 43]

1. 7.92
2. 7.53
3. 7.70
4. 7.03
5. 7.33
6. 7.26

Your task in this section: give pIC50 for each listed record.
1. COc1ccc(-c2nc3c(n2C(C)C)C(c2ccc(Cl)cc2)N(c2cc(C)c4nnc(C(F)F)n4n2)C3=O)cn1 (centres unmarked) [Example 149]
2. Cc1cc(N2C(=O)c3nc(C4CC4)n(C(C)C)c3[C@H]2c2ccc(Cl)cc2)cn2c(C)nnc12 [Example 107]
3. Cc1cc(N2C(=O)c3nc(C4=CCN(S(C)(=O)=O)CC4)n(C(C)C)c3C2c2ccc(Cl)cc2)cn2c(C)nnc12 (centres unmarked) [Example 67]
4. Cc1cc(N2C(=O)c3nc(C4CCOCC4)n(C(C)C)c3C2c2ccc(Cl)cc2)cc2c1nnn2C (centres unmarked) [Example 80]
5. CC(C)n1c(-c2ccnn2C)nc2c1C(c1ccc(Cl)cc1)N(c1ccc(=O)n(C)c1)C2=O (centres unmarked) [Example 21]
6. COc1ccc(-c2nc3c([nH]2)[C@@H](c2ccc(Cl)cc2)N(c2cc(C)c4nnc(C)n4c2)C3=O)cn1 [Example 129]

[7.68, 7.64, 7.69, 7.92, 6.08, 5.63]

Your task in this section: give pIC50 for each listed record.
1. Cc1cc(N2C(=O)c3nc(-c4nccs4)n(C(C)C)c3[C@H]2c2ccc(Cl)cc2)cn(C)c1=O [Example 24]
2. Cc1cc(N2C(=O)c3nc(C4=CCOCC4)[nH]c3C2c2ccc(Cl)cc2)cn2c(C)nnc12 (centres unmarked) [Example 116]
3. Cc1cc(N2C(=O)c3nc(-c4nccs4)n(C(C)C)c3C2c2ccc(Cl)cc2)cn(C)c1=O (centres unmarked) [Example 23]
4. CCn1c(-c2ccc(OC)nc2)nc2c1C(=O)N(c1cc(C)c(=O)n(C)c1)C2c1ccc(Cl)cc1 (centres unmarked) [Example 38]

1. 7.38
2. 7.24
3. 7.17
4. 7.12
